Target: T1, CCR1 (human), P32246
T1 chain: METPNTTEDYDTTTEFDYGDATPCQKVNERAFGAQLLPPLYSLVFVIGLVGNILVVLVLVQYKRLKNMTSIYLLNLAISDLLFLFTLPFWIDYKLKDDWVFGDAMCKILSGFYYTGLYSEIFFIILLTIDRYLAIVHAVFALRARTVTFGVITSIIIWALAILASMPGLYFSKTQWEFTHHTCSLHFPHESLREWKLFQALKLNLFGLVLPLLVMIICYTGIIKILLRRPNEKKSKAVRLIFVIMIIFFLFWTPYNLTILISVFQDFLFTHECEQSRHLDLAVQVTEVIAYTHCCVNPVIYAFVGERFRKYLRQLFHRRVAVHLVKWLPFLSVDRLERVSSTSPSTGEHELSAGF
Assay: biotin-labeled peptide at 10 µM on HOS transformants, 125I-streptavidin
pKd: −log10 of the molar value. No end group written: not given here.
Reported Endpoint: pKd

Q: Tell me the measured pKd of CLDPKQKWIQC (not fully specified (N-terminus); cysteine pairing not given here) [N-terminal biotin conjugate of the sequence n'-…-c'] , please.
A: < 5.00
